Consider the following compounds; for each one, report its logP.

[ask] Sample `O=C1C(Br)=C(N2CC2)C(=O)C(Br)=C1N1CC1` — what was its logP?
[reply] 2.03

[ask] Sample `CCOC(=O)CC(=O)c1ccccc1` — what was its logP?
[reply] 1.87

[ask] Sample `C=C(C)CN(CC)c1c([N+](=O)[O-])cc(C(F)(F)F)cc1[N+](=O)[O-]` — what was its logP?
[reply] 5.11

[ask] Sample `CN1CCCC1=O` — what was its logP?
[reply] -0.54

[ask] Sample `CSc1nc2nc(Cl)ccc2[nH]1` — what was its logP?
[reply] 2.39

[ask] Sample `O=C1C=C(N2CCCC2)C(=O)C=C1N1CCCC1` — what was its logP?
[reply] 1.97

[ask] Sample `CCOC(=O)CCN(Cc1ccccc1)SN(C)C(=O)ON=C(C)SC` — what was its logP?
[reply] 3.43

[ask] Sample `COC(=O)/C=C/C(=O)OC` — what was its logP?
[reply] 0.74

[ask] Sample Cc1c(Cl)ccc(OC(C)C(=O)Nc2ccccc2)c1Cl (stereo unspecified) — what was its logP?
[reply] 4.8

[ask] Sample CC(C(=O)O)c1ccc(N2CC3CCCCC3C2=O)cc1 (stereo unspecified) — what was its logP?
[reply] 3.07

[ask] Sample `COC(=O)Nc1c(C)cccc1C` — what was its logP?
[reply] 1.69

[ask] Sample `O=[N+]([O-])Nc1ccccn1` — what was its logP?
[reply] -1.02

[ask] Sample `O=C(O)Cn1ccnc1[N+](=O)[O-]` — what was its logP?
[reply] -0.34

[ask] Sample `Nc1ccccc1SSc1ccccc1N` — what was its logP?
[reply] 3.05

[ask] Sample `NC(=O)Nc1cccc2cccnc12` — what was its logP?
[reply] 1.62

[ask] Sample `CCOC(=O)C(Cl)(Cl)Cl` — what was its logP?
[reply] 2.39

[ask] Sample `Cc1ncc[nH]1` — what was its logP?
[reply] 0.24

[ask] Sample `CC(C)(C)Br` — what was its logP?
[reply] 1.15

[ask] Sample `CC(=O)N(C)Nc1ccccc1` — what was its logP?
[reply] 1.31

[ask] Sample `CCN(CC)c1c([N+](=O)[O-])cc(C(F)(F)F)c(N)c1[N+](=O)[O-]` — what was its logP?
[reply] 4.3

[ask] Sample CC1C=CCN1 (stereo unspecified) — what was its logP?
[reply] 1.87

[ask] Sample `Cn1c(N)nc2cc(Cl)ccc21` — what was its logP?
[reply] 2.09

[ask] Sample `C1=c2ccc3cccc4ccc(c2c43)CC1` — what was its logP?
[reply] 4.92

[ask] Sample `CNC(=O)CNC(=O)CCc1ccc(S(=O)(=O)N(C)C)cc1` — what was its logP?
[reply] -0.35

[ask] Sample `O=C1C=C(N2CC2)C(=O)C=C1N1CC1` — what was its logP?
[reply] 0.18

[ask] Sample Cc1ccccc1COC1CC2(C(C)C)CCC1(C)O2 (stereo unspecified) — what was its logP?
[reply] 3.83

[ask] Sample CCC(C)OC(C)=O (stereo unspecified) — what was its logP?
[reply] 1.72

[ask] Sample `CCC1=C(N2CC2)C(=O)C(C)=C(N2CC2)C1=O` — what was its logP?
[reply] 1.35

[ask] Sample `Cc1cccc(OCc2ccccc2)n1` — what was its logP?
[reply] 3.43

[ask] Sample `c1cnc2nc[nH]c2c1` — what was its logP?
[reply] 0.3

[ask] Sample `CCCCOCN(C(=O)CCl)c1c(CC)cccc1CC` — what was its logP?
[reply] 4.5

[ask] Sample `O=C1C(F)=C(N2CC2)C(=O)C(N2CC2)=C1N1CC1` — what was its logP?
[reply] 0.14

[ask] Sample `C1CCCCCC1` — what was its logP?
[reply] 4

[ask] Sample `Cc1ccc(N(SC(F)(Cl)Cl)S(=O)(=O)N(C)C)cc1` — what was its logP?
[reply] 3.95

[ask] Sample `Clc1nc(-c2ccccc2)nc2ccccc12` — what was its logP?
[reply] 4.47

[ask] Sample `N#CC#N` — what was its logP?
[reply] 0.07
